I'd appreciate it if you could supply protein stability index values for the items below.
- Tested on: Saccharomyces cerevisiae
- assay text: protein stability index of tFT-peptide fusion (C-terminal peptide) (PSI (0-1 scale)); higher = more stable (slower turnover)
- particulars: genetic background: wild type; temperature: 30 C
Respond numerically, and do not add a unit to the figure.

Request body: readout protein stability index, system Saccharomyces cerevisiae, query EVVGGSESRELG . Return the value.
0.657

Let us now turn to LTYFSDRFVTRV
0.658

Let us now turn to KSGGWLWVGGGG
0.748

Let us now turn to VCGYLSIVIWLR
0.423

Let us now turn to WTGTTGQSLYLS
0.733

Let us now turn to CAGRVWVGLCGV
0.685

Let us now turn to LVDARVRLTFVI
0.536

Let us now turn to RFYLFLFFVRST
0.175

Let us now turn to WFFRSVVPRCGG
0.63

Let us now turn to YLGYADDLLIML
0.707

---

I'd appreciate it if you could supply protein stability index values for the items below.
- Tested on: Saccharomyces cerevisiae
- assay text: protein stability index of tFT-peptide fusion (C-terminal peptide) (PSI (0-1 scale)); higher = more stable (slower turnover)
- particulars: genetic background: wild type; temperature: 30 C
Respond numerically, and do not add a unit to the figure.

Return reported protein stability index; argument: SLDLSQPMPWYH
0.711

Let us now turn to PFPLSPPPPPLD
0.761

Let us now turn to RWGGWFCRLPIG
0.698

Let us now turn to SPFRATPYPLLP
0.691

Let us now turn to KTRKKEKKPSRK
0.623

Let us now turn to SCFGVSRSAHFL
0.728

Let us now turn to HWVVRGGSRRVV
0.706

Let us now turn to NKREYYWINLEC
0.562

Let us now turn to DGSPLGSIQQAP
0.673

Let us now turn to IQSRDDTVEGRK
0.63

Let us now turn to WQIRREMFECGL
0.677

Let us now turn to MSKGKKKGVKRK
0.703

Let us now turn to ATDWPELFLPFG
0.666

Let us now turn to RPPCFRPPPPPL
0.715

Let us now turn to ISVPPFPAPPPP
0.745

Let us now turn to PHRPPPCLPFGS
0.728

Let us now turn to GVVCWVVVFGGW
0.416

Let us now turn to GGESENEVGSRS
0.644

Let us now turn to CGRPRGVEPGGA
0.754

---

I'd appreciate it if you could supply protein stability index values for the items below.
- Tested on: Saccharomyces cerevisiae;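 note: PSI is a weighted mean of sequencing reads over stability bins, variants kept only with over 10 reads, mCherry proximal and sfGFP distal, peptide attached via GGGS linker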
- assay text: protein stability index of tFT-peptide fusion (C-terminal peptide) (PSI (0-1 scale)); higher = more stable (slower turnover)
- particulars: genetic background: wild type; temperature: 30 C
Respond numerically, and do not add a unit to the figure.

Return reported protein stability index; argument: RLELTRIMIVAI
0.207

Let us now turn to SLFPAGWAGFSD
0.73

Let us now turn to VSPGPSPPPPPR
0.622

Let us now turn to DRSMRPISKRWE
0.668

Let us now turn to HPPPETEPIPVA
0.574

Let us now turn to GFAALLSSLFFL
0.683

Let us now turn to GTGTNGPSSAKL
0.74

Let us now turn to GPVHVRGVGFGF
0.73

Let us now turn to WCWTYLRFSVEL
0.677

Let us now turn to WCTLNGASLCLH
0.772

Let us now turn to VRDVIGWGEEEY
0.708

Let us now turn to PLQFLPPLPCVS
0.539

Let us now turn to SLVSTSRALFAQ
0.659

Let us now turn to VFFPLFLNGSNV
0.695

Let us now turn to WILPASFCVVFL
0.427

Let us now turn to VAGAGAGREAAY
0.616

Let us now turn to RLLASIRAAQAS
0.525

Let us now turn to GGCSDKVVRGGV
0.695

Let us now turn to HARAGTKPLTGY
0.678
